Test system: K-562 leukemia
Assay: NCI-60 one-dose screen, 48 h (100 = growth as untreated, 0 = no growth, -100 = all killed)
Conditions: 10 µM unless noted
Procedure: Cells are grown in 96 well plates and exposed to the test compound for 48 hours. Compounds are tested at a single concentration, which is 10^-5 M for most compounds. The reported endpoint is percent growth (GI% or GIPRCNT), where numbers from 0 - 100% represent growth inhibition, and numbers from -100% - 0 represent cell death. For example, a value of 40 represents 60% growth inhibition. A value of 0 means no net growth occurred over the course of the experiment. […]
About 83,000 compounds went through this panel and 20% of them were active in at least one assay; those are over-represented in the sample as a whole.
property name: growth (%)
I only need the number, in %, no unit after it.

| compound | property name | measured number |
| --- | --- | --- |
| COc1cc(NC(=O)C#Cc2ccccc2)c(OC)cc1Cl | growth | 20.6 |
| O=C(Nc1ccc(-n2cc(-c3ccncc3)c(-c3ccc(O)c(Cl)c3)n2)cc1)c1ccc(Cl)c(Cl)c1 | growth | 11.7 |
| CC(C)Cn1cnc2c3ccccc3nc(NCn3nc(-c4cc(Cl)cc(Cl)c4Cl)oc3=S)c21 | growth | 59.6 |
| Clc1ccc(CN2COc3c(ccc4cccnc34)C2)cc1Cl | growth | -34.2 |
| COc1ccc(-c2cnc(-c3ccc(F)cc3)[nH]2)cc1 | growth | 57.1 |

# next compound below
Entry COc1ccc2c(c1)OC(N)=C(C#N)C2c1ccc(F)c(F)c1 (stereo not given) , tested on K-562 leukemia, has a reported growth of 9.04

###

Test system: ACHN renal
Test: NCI-60 one-dose screen, 48 h (100 = growth as untreated, 0 = no growth, -100 = all killed)
Conditions: 10 µM unless noted
This is part of a sample that, as a whole, favours compounds with a hit. Of some 83,000 tested, about 20% had one in any assay. Active and inactive are the calls of the source. The calls were made as follows: active = growth percent below 10; inactive = the rest.
property name: growth

Example compounds with recorded growth:
| compound | assayed system | growth |
| --- | --- | --- |
| COc1cc(-c2nc3ccccc3s2)ccc1OCc1nc2n(n1)S(=O)(=O)c1ccccc1N2C | ACHN renal | 94.3% (inactive) |
| Cc1cccc[n+]1CCC[n+]1ccccc1C | ACHN renal | 109% (inactive) |

Entry COc1ccc(SC2c3ccc(O)cc3Oc3nc(N)c(C#N)c(N)c32)cc1 (centres undefined) , tested on ACHN renal, has a reported growth of 97.7% (inactive)

###

Tested on: COLO 205 colon
Experiment: NCI-60 one-dose screen, 48 h (100 = growth as untreated, 0 = no growth, -100 = all killed)
Conditions: 10 µM unless noted
The panel holds about 83,000 compounds, 20% with a hit somewhere; the sample as a whole holds those more often.
Catalogue of compounds with associated growth
I only need the number, in %, no unit after it.

Example compounds with recorded growth:
| compound | unit spec | measured number |
| --- | --- | --- |
| Nc1ncnc2c1c(-c1ccc(Oc3ccccc3)cc1)nn2C[C@H]1SSC[C@H]1O | % | -83.3 |
| COc1ccc(-c2cc(-c3nnc(SC/C(=N\O)c4ccccc4)n3-c3ccccc3)c3ccccc3n2)cc1 | % | 91.1 |
| O=C(N/N=C/c1ccccc1O)c1ccccc1O | % | 55.5 |

Entry Oc1ccc(Cl)cc1Sc1cc(Cl)ccc1O , tested on COLO 205 colon, has a reported growth of 105

Entry COC(=O)c1oc2c(C(C)=O)c(OCCN3CCCCC3)ccc2c1C , tested on COLO 205 colon, has a reported growth of 130

Entry COc1ccc(-c2nn(-c3ccc(NC(=O)c4cc(Cl)cc(Cl)c4)cc3)cc2-c2ccncc2)cc1Cl , tested on COLO 205 colon, has a reported growth of 46.9

Entry C=CC(C)(O)CCC1C(=C)CCC2C(C)(C)CCCC12C (configuration not stated) , tested on COLO 205 colon, has a reported growth of 123

###

System: 786-0 renal
Test: NCI-60 one-dose screen, 48 h
Conditions: 10 µM unless noted
About 83,000 compounds went through this panel and 20% of them were active in at least one assay; those are over-represented in the sample as a whole. Calls of active or inactive are those of the source. Rule for the calls: active = growth percent below 10; inactive = the rest.
Give your call using only these classes: 1 (yes) (active), 0 (no) (inactive)

Field: example entries. Status: answers known.
| compound | class label |
| --- | --- |
| CC[C@@]1(O)C(=O)OCc2c1cc1n(c2=O)Cc2c-1nc1ccccc1c2/C=N/OC(C)(C)C | 1 (yes) |
| CCN(CC)CC(=O)Nc1c(C)cccc1C | 0 (no) |
| COC(OC)C1(c2ccccc2)NC(=O)NC1=O (stereo unspecified) | 0 (no) |
| O=C(C[n+]1cccc(Br)c1)c1ccc2c(c1)CCCC2 | 0 (no) |
| O=C(Nc1cccc([N+](=O)[O-])c1)c1ccc2ccccc2c1O | 0 (no) |

Which outcome did this test record for the compound O=C(NCCNc1nccc(-c2c(-c3cccc(O)c3)nc3sccn23)n1)c1cccc(C(F)(F)F)c1 ? 0 (no)

###

Tested on: DU-145 prostate
Experiment: NCI-60 one-dose screen, 48 h
Details: 10 µM unless noted
The panel holds about 83,000 compounds, 20% with a hit somewhere; the sample as a whole holds those more often. The source made the active and inactive calls. Rule for the calls: active = growth percent below 10; inactive = the rest.
Give your call using only these classes: active, inactive

Field: example entries. Status: answers known.
| compound | assayed system | class label |
| --- | --- | --- |
| CC1CCC(C(C)C)C(NN)C1 (configuration not stated) | DU-145 prostate | inactive |
| CC[C@H]1[C@@H]2C=C[C@@H]3[C@H]4C/C=C\C(=O)NCCC[C@@H]5NC(=O)/C(=C(O)/C=C/[C@@H]4C[C@@H]3[C@H]2C[C@H]1C)C5=O | DU-145 prostate | active |
| O=C(c1ccccc1)[C@H]1[C@@H]2CCCN2[C@]2(C(=O)Nc3ccc(F)cc32)[C@]12C(=O)Nc1ccccc12 | DU-145 prostate | inactive |
| NS(=O)(=O)c1ccc(-n2nc(-c3ccc(Cl)cc3)ccc2=O)cc1 | DU-145 prostate | inactive |
| COc1ccc(Cl)cc1NC(=O)c1cc2c([nH]1)-c1nc(NC(=O)C(C)C)sc1CC2 | DU-145 prostate | inactive |

Which outcome did this test record for the compound CC1(C)Cc2c(Br)c(Br)c(Br)c(OCC(O)CN3CCN(c4ccccn4)CC3)c2O1 (configuration not stated) ? inactive

Which outcome did this test record for the compound COCCNC(C(=O)c1ccccc1)c1ccccc1 (configuration not stated) ? inactive

###

System: MCF7 breast
Test: NCI-60 one-dose screen, 48 h (100 = growth as untreated, 0 = no growth, -100 = all killed)
Conditions: 10 µM unless noted
About 83,000 compounds went through this panel and 20% of them were active in at least one assay; those are over-represented in the sample as a whole. Active and inactive are the calls of the source. How the source made its calls: active means growth percent below 10; inactive means the rest.
property name: growth

| structure as smiles | result |
| --- | --- |
| CC(=O)CC/C=C(\C)[C@H](O)[C@H](C)C(=O)O[C@H]1C[C@H](C)C=C2C=C[C@@]3(C)O[C@@H](O)CC(=O)[C@]3(C)[C@H]21 | -4.71% (active) |
| CCc1cccc(-c2ccccc2)c1 | 105% (inactive) |
| CCn1c(C)nc([N+](=O)[O-])c1Sc1nc(N)nc2nc[nH]c12 | 14.5% (inactive) |
| CCCCC(=O)Nc1nc2ccc(SCCC)cc2s1 | 35% (inactive) |
| Cc1c(Cl)ccc2c(C(=O)Cl)cc(-c3ccccc3)nc12 | 87.6% (inactive) |

# next molecule below
Entry Nc1nccc2c1ccn2-c1ccc(NC(=O)Nc2cccc(C(F)(F)F)c2)cc1 , tested on MCF7 breast, has a reported growth of 86.8% (inactive)

###

Test system: MCF7 breast
Assay: NCI-60 one-dose screen, 48 h
Conditions: 10 µM unless noted
Procedure: Growth inhibition of the MCF7 human tumor cell line is measured as a screen for anti-cancer activity. Cells are grown in 96 well plates and exposed to the test compound for 48 hours. Compounds are tested at a single concentration, which is 10^-5 M for most compounds. The reported endpoint is percent growth (GI% or GIPRCNT), where numbers from 0 - 100% represent growth inhibition, and numbers from -100% - 0 represent cell death. For example, a value of 40 represents 60% growth inhibition. […]
This is part of a sample that, as a whole, favours compounds with a hit. Of some 83,000 tested, about 20% had one in any assay. Calls of active or inactive are those of the source. How the source made its calls: active means growth percent below 10; inactive means the rest.
Give your call using only these classes: class 1 = active, class 0 = inactive

Field: example entries. Status: answers known.
| compound | class label |
| --- | --- |
| CN(C)c1ncc(C#Cc2c(F)cccc2F)c2ccccc12 | class 0 |
| C#C[C@@]1(O)[C@@H](CO)O[C@@H](n2cc(Br)c3c(Cl)ccnc32)[C@@H]1O | class 1 |
| COc1ccc(/C=N/C2=NNC(C)(c3ccccc3O)N2C(Cc2c[nH]c3ccccc23)C(=O)O)cc1 (configuration not stated) | class 0 |
| C/C(=N\N=C1/SCC(=O)N1c1ccccc1)c1ccco1 | class 0 |
| ClC1c2ccccc2CCc2ccccc21 | class 0 |
| CC1=C2C(=C[C@@](C)(CO)[C@@H]2OC(=O)N(C)CCN(C)C(=O)OC(C)(C)C)C(=O)[C@](C)(O)C12CC2 | class 0 |
| COc1ccc(CCNC=O)cc1OC | class 0 |
| O=C(NCCNc1nccc(-c2c(-c3cccc(O)c3)nc3sccn23)n1)c1ccccc1O | class 0 |

Which outcome did this test record for the compound O=C(Nc1ccc(-n2cc(-c3ccncc3)c(-c3ccc(O)c(Cl)c3)n2)cc1)c1cc(Cl)cc(Cl)c1 ? class 0

Which outcome did this test record for the compound Cc1ccc(-c2nc3c(N=Nc4ccc(S(N)(=O)=O)cc4)c(N)nn3c(N)c2C#N)cc1 ? class 0

Which outcome did this test record for the compound C=CCOc1ccc(/C(Cl)=N/N=C(\Cl)c2cc(OC)c(OC)c(OC)c2)cc1 ? class 0

Which outcome did this test record for the compound COc1cccc(C2CC(c3cc(OC)c(OC)c(OC)c3)=NN2)c1 (configuration not stated) ? class 0

Which outcome did this test record for the compound COc1ccc(-c2nn(-c3cccc(Cl)c3)cc2-c2cc(-c3ccc(Br)cc3)[nH]c(=O)c2C#N)cc1 ? class 0

Which outcome did this test record for the compound O=c1c2ccccc2sc2c(N3CCCC3)nc3ccccc3c12 ? class 0

Which outcome did this test record for the compound C=C1C(=O)O[C@H]2[C@H]1CC/C(COC(=O)n1ccnc1C)=C\CC[C@@]1(C)O[C@@H]21 ? class 0

Which outcome did this test record for the compound COC(=O)c1oc2c(C(C)=O)c(OCCN3CCCCC3)ccc2c1C ? class 0

Which outcome did this test record for the compound O=[N+]([O-])c1ccc(NS(=O)(=O)c2ccccc2)c2ccccc12 ? class 0
